Hi there, I'd appreciate the recorded T/C for every entry that follows.
test system: nude mice, HT29 intrarenal xenograft, tumor weight T/C; experiment: NCI In Vivo Anticancer Drug Screen. Data for tumor model HT29;CX-1 Human Adenocarcinoma (MER+) (intrarenal inoculation) in NU/NU Swiss (nude) mice; details: endpoint: mean tumor weight change; dose: 100.0 mg/kg/injection; schedule: Q01DX010 (sc); vehicle: saline; higher = larger tumour
Inconclusive results are not listed.

Would you mind listing T/C for each of the following molecules?
1. Cc1cc2nc3[nH]c4ccccc4c3nc2cc1C
2. Nc1nc(F)nc2c1ncn2C1OC(COP(=O)(O)O)C(O)C1O (configuration not stated)
3. Cc1cc(SCC(=O)c2ccc(Br)cc2)cc(C)[o+]1
4. CNC(=O)ON(C(C)=O)C(=O)NC
5. C=CC(=O)NCNC(=O)C=C
6. N=C(N)Sc1ccccn1

OUT:
["46 % of control", "84 % of control", "41 % of control", "13 % of control", "213 % of control", "100 % of control"]

Measured values drawn from PubChem BioAssay AID206 for this set.
